Source of measurements: patent US9447069B2

Below, each of the compounds is paired with its reported pEC50 value.
- system-under-test: RORγ LBD (Homo sapiens, UniProt P51449)
- Sequence (P51449 269-508 limits assumed): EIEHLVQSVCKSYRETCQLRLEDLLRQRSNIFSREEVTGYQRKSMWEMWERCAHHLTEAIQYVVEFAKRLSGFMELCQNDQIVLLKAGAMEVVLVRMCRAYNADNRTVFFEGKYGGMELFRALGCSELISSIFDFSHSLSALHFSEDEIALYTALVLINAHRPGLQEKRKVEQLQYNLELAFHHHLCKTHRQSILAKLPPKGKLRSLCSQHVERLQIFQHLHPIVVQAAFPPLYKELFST
- method: TR-FRET NCoR1-D2 co-repressor recruitment to RORγ LBD
- Type: biochemical
- Parameters: purified GST-tagged (i) RORγ LBD or (ii) RORα LBD; purchased Life Technologies
- assay-setup: TR-FRET assessed 2 hr post-assay initiation; read-out: RORγ EC50 NCoR1-D2 co-repressor recruitment, 2 hr
pEC50: −log10 of the molar value.

For this compound ( `Cc1n[nH]c(-c2ccc3c(c2)CCCN3Cc2ccc(C(O)(C(F)(F)F)C(F)(F)F)cc2)n1` ), measured pEC50 is < 4.52

Item: `Cc1n[nH]c(-c2ccc3c(c2)CCC(=O)N3Cc2ccc(C(O)(C(F)(F)F)C(F)(F)F)cc2)n1` | pEC50: < 4.52

The reported value for `OC(c1ccc(CN2CCc3cc(-c4cn[nH]c4)ccc32)cc1)(C(F)(F)F)C(F)(F)F` in terms of pEC50 is > 4.52

pEC50 reported for this compound `Cc1cc(-c2ccc3c(c2)CCN3Cc2ccc(C(O)(C(F)(F)F)C(F)(F)F)cc2)[nH]n1` : > 4.52

----------
- system-under-test: RORγ LBD (Homo sapiens)
- Sequence (P51449 269-508 limits assumed): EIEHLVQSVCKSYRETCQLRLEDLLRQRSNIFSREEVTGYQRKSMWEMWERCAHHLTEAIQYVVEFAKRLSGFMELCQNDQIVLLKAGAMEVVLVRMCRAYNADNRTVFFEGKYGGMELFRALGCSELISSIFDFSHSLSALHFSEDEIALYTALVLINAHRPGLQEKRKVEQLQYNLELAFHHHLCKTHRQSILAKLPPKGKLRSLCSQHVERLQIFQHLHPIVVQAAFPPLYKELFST
- method: TR-FRET D22 co-activator displacement from RORγ LBD
- Type: biochemical
- Set-up: purified GST-tagged (i) RORγ LBD or (ii) RORα LBD; purchased Life Technologies
- assay-setup: TR-FRET assessed 20 hr post-assay initiation; read-out: RORγ EC50 D22 co-activator displacement, 20 hr
measurement-label: EC50

{"smiles-code": "Cc1n[nH]c(-c2ccc3c(c2)CCCN3Cc2ccc(C(O)(C(F)(F)F)C(F)(F)F)cc2)n1", "EC50": "> 30 µM"}

Consider `O=C1CCc2cc(-c3cn[nH]c3)ccc2N1Cc1ccc(C(O)(C(F)(F)F)C(F)(F)F)cc1` . Its measured EC50 is < 30 µM

For reference, reported EC50 for `Cc1n[nH]c(-c2ccc3c(c2)CCC(=O)N3Cc2ccc(C(O)(C(F)(F)F)C(F)(F)F)cc2)n1` stands at < 30 µM

Reported EC50 ( `Cc1cc(-c2ccc3c(c2)CCCN3Cc2ccc(C(O)(C(F)(F)F)C(F)(F)F)cc2)[nH]n1` ) = < 30 µM
